The measured values listed here are drawn from paper PMC2730633.

Biological target: Tel-Lyn (Homo sapiens, UniProt P07948+P41212)
Sequence (P07948 247-501 limits assumed, one chain of several): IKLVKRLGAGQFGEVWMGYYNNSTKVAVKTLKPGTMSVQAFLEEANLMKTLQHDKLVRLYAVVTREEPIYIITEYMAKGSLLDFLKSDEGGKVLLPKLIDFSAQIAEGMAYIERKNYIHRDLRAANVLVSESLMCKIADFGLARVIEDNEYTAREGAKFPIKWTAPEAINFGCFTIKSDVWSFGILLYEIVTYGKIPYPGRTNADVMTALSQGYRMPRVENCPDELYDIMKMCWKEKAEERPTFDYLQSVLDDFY
Test: Tyrosine kinase transformed Ba/F3 cellular assay
Conditions: Ba/F3 cells transformed with Tel fusion of Lyn
reported_property: EC50

Problem: Requested read-out: EC50. Entry: CCN1CCN(Cc2ccc(NC(=O)c3ccc(C)c(NC(=O)c4cncc(-c5cccs5)c4)c3)cc2C(F)(F)F)CC1
Solution: < 500 nM
